Assay: Cell viability (ATP, CellTiter-Glo) in parallel with metabolomics experiments
Settings: human, HepG2 cells, Percentage of viability (ATP) compared to the vehicle control, C2, C2, 48 h, n = 6
ASSAY_READOUT: viability at 48 h (%)
I only need the number, in %, no unit after it.

// solved cases for viability at 48 h follow
COMPOUND: O=c1cc(-c2ccccc2)oc2ccc3ccccc3c12
RESULT_VALUE: 114
--
COMPOUND: O=C(O)c1cc(Oc2ccc(C(F)(F)F)cc2Cl)ccc1[N+](=O)[O-]
RESULT_VALUE: 105
--
COMPOUND: Cc1cccc(Nc2cc(Cl)nc(SCC(=O)O)n2)c1C
RESULT_VALUE: 97.1

viability at 48 h reported for this compound CC(=O)N1CCN(c2ccc(OCC3COC(Cn4ccnc4)(c4ccc(Cl)cc4Cl)O3)cc2)CC1 (stereo not shown) : 102

###

Assay: Cell viability (ATP, CellTiter-Glo) in parallel with metabolomics experiments
Settings: human, HepG2 cells, Percentage of viability (ATP) compared to the vehicle control, C1, C1, 48 h, n = 6
Reported values of viability at 48 h for individual entries
I only need the number, in %, no unit after it.

// solved cases for viability at 48 h follow
COMPOUND: O=C(O)c1cc(Oc2ccc(C(F)(F)F)cc2Cl)ccc1[N+](=O)[O-]
RESULT_VALUE: 105
//
COMPOUND: O=c1cc(-c2ccccc2)oc2ccc3ccccc3c12
RESULT_VALUE: 103

viability at 48 h reported for this compound Cc1cccc(Nc2cc(Cl)nc(SCC(=O)O)n2)c1C : 101

viability at 48 h reported for this compound CC(=O)N1CCN(c2ccc(OCC3COC(Cn4ccnc4)(c4ccc(Cl)cc4Cl)O3)cc2)CC1 (stereo not shown) : 102

###

Experiment: Cell viability (ATP, CellTiter-Glo) in parallel with metabolomics experiments
Settings: human, HepG2 cells, Percentage of viability (ATP) compared to the vehicle control, Bezafibrate positive control, Bezafibrate 1000 μM, 48 h, one value per experiment plate, n = 6
ASSAY_READOUT: viability at 48 h, 1000 μM

viability at 48 h, 1000 μM reported for this compound CC(C)(Oc1ccc(CCNC(=O)c2ccc(Cl)cc2)cc1)C(=O)O [Bezafibrate] : 71 to 84%

###

Reported values of viability at 48 h for individual entries
Experiment: Cell viability (ATP, CellTiter-Glo) in parallel with metabolomics experiments
Conditions: human, HepG2 cells, Percentage of viability (ATP) compared to the vehicle control, C5, C5, 48 h, n = 6
I only need the number, in %, no unit after it.

// solved cases for viability at 48 h follow
COMPOUND: Cc1cccc(Nc2cc(Cl)nc(SCC(=O)O)n2)c1C
viability at 48 h / %: 23.2

COMPOUND: CC(=O)N1CCN(c2ccc(OCC3COC(Cn4ccnc4)(c4ccc(Cl)cc4Cl)O3)cc2)CC1 (stereo not shown)
viability at 48 h / %: 28.2

COMPOUND: O=c1cc(-c2ccccc2)oc2ccc3ccccc3c12
viability at 48 h / %: 15

# evaluate next
viability at 48 h reported for this compound O=C(O)c1cc(Oc2ccc(C(F)(F)F)cc2Cl)ccc1[N+](=O)[O-] : 27.8

###

Test: Cell viability (ATP, CellTiter-Glo) in parallel with metabolomics experiments
Details: human, Percentage of viability (ATP) compared to the vehicle control, C1, C1, 48 h, n = 6
Experimental: HepG2 cells (ECACC, UK, maximum passage number 9) were maintained and grown on Dulbecco’s MEM media supplemented with 1% v/v of penicillin/streptomycin, L-glutamine (200 mM, 1% v/v), non-essential amino acids (100x, 1% v/v), and 10% FBS (PAN-Biotech, Aidenbach, Germany) in 75 cm^2 culture flasks (TPP, Switzerland). For cell passaging (~ 80% confluency) media was removed and cells were washed twice with pre-warmed calcium and magnesium free Dulbecco’s PBS (PAN-Biotech, Aidenbach, Germany). […]
ASSAY_READOUT: viability at 48 h (%)
I only need the number, in %, no unit after it.

viability at 48 h reported for this compound CCC(CC)Nc1c([N+](=O)[O-])cc(C)c(C)c1[N+](=O)[O-] : 98.3
